- measurement target: HLA-B*5301 (human)
- assay remarks: inhibition of 125I probe peptide, purified HLA
Mark satisfied only when IC50 stays strictly below 0.4 µM. Values equal to the cut-off are not satisfied.

These solved cases illustrate the format of a correct answer.
FPPHRWCIPI [CEA.6.F1I10] : not satisfied
FPWQRLLL [CEA.13.F1, 8 AA] : not satisfied

Field: next binder
Regarding FPQHLFGI [CEA.58.F1, 8 AA] , kindly confirm whether its IC50 is beneath 0.4 µM. not satisfied

Data origin, for the record: patent US20040146519A1
